Measure name: melting point (°C)
Give a bare numeral; the unit °C is implied.

Exercise: Please look up its melting point: Cc1ccc(N2C(=O)C(Cl)=C(C(=O)c3ccc(C(C)C)cc3)C2c2ccc(OC(F)(F)F)cc2)nn1 (stereo not shown)
Solution: 293

Exercise: Please look up its melting point: COc1ccc(C2C(C(=O)c3ccc(N4CCOCC4)cc3)=C(O)C(=O)N2c2ccc(C)nn2)cc1 (stereo not shown)
Solution: 232

Exercise: Please look up its melting point: Cc1ccc(N2C(=O)C(O)=C(C(=O)c3ccc(C(C)C)cc3)C2c2ccc(-n3cncn3)cc2)nn1 (stereo not shown)
Solution: 284

----------
Entries and their melting point values follow.

Recorded melting point, per entry:
Compound	Measure name	Result
COc1ccc(C2C(C(=O)c3ccc(C(C)C)cc3)=C(O)C(=O)N2c2ccc(C)nn2)cc1 (stereo not shown) [Example 62]	melting point	263 to 267 °C
Cc1ccc(N2C(=O)C(O)=C(C(=O)c3ccc(C(C)C)cc3)C2c2ccc(N(C)C)cc2)nn1 (stereo not shown) [Example 135]	melting point	283 to 286 °C
Cc1ccc(N2C(=O)C(O)=C(C(=O)c3ccc(C(F)(F)F)nc3)C2c2ccc(OC(F)(F)F)cc2)nn1 (stereo not shown) [Example 126]	melting point	172 °C

The record that follows has no melting point shown yet.
Exercise: Please look up its melting point: CCc1ccc(C(=O)C2=C(O)C(=O)N(c3ccc(C)nn3)C2c2ccc(OC(F)(F)F)cc2)cc1 (stereo not shown) [Example 102]
Solution: 263 to 267 °C
